Every entry's value here was drawn from patent US20200061062A1.

Listing of recorded pIC50 by entry.
# subject-of-test: PI3Kβ (Homo sapiens)
# Construct: His tag (pFastbac HTa vector) (N); FLAG (N); made in house; host or cells: Sf21 insect cells (baculovirus)
# Sequence (P42338 whole entry): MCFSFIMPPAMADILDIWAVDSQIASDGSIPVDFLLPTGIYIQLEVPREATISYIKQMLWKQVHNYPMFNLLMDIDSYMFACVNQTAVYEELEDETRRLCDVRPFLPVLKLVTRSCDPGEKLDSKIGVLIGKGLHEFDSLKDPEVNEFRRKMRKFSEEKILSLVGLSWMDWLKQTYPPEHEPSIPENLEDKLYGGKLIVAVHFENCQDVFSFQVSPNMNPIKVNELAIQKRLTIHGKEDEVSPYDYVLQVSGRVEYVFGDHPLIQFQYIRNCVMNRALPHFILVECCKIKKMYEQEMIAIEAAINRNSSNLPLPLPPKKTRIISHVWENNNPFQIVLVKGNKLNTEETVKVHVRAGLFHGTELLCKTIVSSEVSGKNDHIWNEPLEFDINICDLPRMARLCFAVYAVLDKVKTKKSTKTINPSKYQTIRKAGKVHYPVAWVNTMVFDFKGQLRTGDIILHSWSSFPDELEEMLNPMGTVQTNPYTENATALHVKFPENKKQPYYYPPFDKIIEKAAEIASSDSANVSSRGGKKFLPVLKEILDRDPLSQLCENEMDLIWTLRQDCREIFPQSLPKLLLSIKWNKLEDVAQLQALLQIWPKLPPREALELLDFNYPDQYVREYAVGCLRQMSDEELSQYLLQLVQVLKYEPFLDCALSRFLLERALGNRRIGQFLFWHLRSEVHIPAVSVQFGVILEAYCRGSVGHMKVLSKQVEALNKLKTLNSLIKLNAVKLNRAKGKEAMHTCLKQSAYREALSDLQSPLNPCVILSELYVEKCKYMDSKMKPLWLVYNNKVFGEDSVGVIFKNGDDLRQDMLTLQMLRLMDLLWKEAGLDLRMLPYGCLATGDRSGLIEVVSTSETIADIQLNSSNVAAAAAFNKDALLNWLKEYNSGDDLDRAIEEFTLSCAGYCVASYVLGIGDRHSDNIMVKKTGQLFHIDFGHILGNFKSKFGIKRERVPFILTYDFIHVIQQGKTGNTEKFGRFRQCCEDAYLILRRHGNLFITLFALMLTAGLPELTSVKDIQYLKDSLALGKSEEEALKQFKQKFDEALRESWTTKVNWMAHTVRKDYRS
# Sequence (P27986 whole entry partner): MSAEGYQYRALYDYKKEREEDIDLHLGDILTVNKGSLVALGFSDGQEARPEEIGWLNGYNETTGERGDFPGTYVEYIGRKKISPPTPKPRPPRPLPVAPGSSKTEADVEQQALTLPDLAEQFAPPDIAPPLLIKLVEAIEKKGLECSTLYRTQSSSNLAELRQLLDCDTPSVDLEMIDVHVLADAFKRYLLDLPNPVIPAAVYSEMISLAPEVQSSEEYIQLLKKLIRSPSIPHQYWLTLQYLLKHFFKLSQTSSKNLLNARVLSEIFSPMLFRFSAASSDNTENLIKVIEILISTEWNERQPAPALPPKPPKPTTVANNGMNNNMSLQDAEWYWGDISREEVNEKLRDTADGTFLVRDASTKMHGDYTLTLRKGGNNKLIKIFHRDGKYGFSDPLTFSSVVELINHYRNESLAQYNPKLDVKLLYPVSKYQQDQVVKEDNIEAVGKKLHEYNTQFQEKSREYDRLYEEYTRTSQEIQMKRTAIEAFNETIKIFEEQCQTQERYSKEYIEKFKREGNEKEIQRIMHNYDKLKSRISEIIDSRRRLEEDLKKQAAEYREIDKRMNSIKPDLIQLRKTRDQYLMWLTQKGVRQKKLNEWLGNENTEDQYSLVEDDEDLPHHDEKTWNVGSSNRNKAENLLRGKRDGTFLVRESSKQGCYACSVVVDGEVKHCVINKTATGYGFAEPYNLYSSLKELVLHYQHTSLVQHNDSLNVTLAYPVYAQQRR
# assay-remarks: Biochemical assay using 200 μM ATP, Beta
Note: pIC50 values are expressed as the negative base-10 logarithm of concentration in M.

Here is how some compounds turned out for pIC50.
>>> value_reported("Cc1cccc2nc(CSc3ncnc4[nH]cnc34)n(-c3c(Cl)cccc3Cl)c(=O)c12")
3.99
>>> value_reported("Nc1ncnc2c1ncn2Cc1nc2cccc(Cl)c2c(=O)n1-c1ccccc1-c1ccccc1")
4.74

Request the reported pIC50 associated with Cc1cccc2nc(CSc3ncnc4[nH]cnc34)n(-c3ccccc3F)c(=O)c12
3.86

Request the reported pIC50 associated with O=c1c2c(Cl)cccc2nc(CSc2ncnc3[nH]cnc23)n1-c1ccccc1F
3.98

Request the reported pIC50 associated with Cc1cccc2nc(Cn3cnc4c(N)ncnc43)n(-c3ccccc3Cl)c(=O)c12
4.14

Request the reported pIC50 associated with Cc1ccccc1-n1c(CSc2ncnc3[nH]cnc23)nc2cccc(Cl)c2c1=O
4.48

Request the reported pIC50 associated with O=c1c2cc(F)c(F)cc2nc(CSc2ncnc3[nH]cnc23)n1-c1ccccc1Cl
3.96

Request the reported pIC50 associated with Cc1cccc2nc(Cn3cnc4c(N)ncnc43)n(-c3ccccc3F)c(=O)c12
4.02

Request the reported pIC50 associated with COc1ccccc1-n1c(CSc2ncnc3[nH]cnc23)nc2cccc(C)c2c1=O
4.52

Request the reported pIC50 associated with Cc1cccc2nc(Cn3cnc4c(N)ncnc43)n(-c3ccccc3C(C)C)c(=O)c12
4.47

---

# subject-of-test: PI3Kα (Homo sapiens, UniProt P42336)
# Construct: His tag (pFastbac HTb vector) (N); FLAG; made in house; host or cells: Sf21 insect cells (baculovirus)
# Sequence (P42336 whole entry, one chain of several): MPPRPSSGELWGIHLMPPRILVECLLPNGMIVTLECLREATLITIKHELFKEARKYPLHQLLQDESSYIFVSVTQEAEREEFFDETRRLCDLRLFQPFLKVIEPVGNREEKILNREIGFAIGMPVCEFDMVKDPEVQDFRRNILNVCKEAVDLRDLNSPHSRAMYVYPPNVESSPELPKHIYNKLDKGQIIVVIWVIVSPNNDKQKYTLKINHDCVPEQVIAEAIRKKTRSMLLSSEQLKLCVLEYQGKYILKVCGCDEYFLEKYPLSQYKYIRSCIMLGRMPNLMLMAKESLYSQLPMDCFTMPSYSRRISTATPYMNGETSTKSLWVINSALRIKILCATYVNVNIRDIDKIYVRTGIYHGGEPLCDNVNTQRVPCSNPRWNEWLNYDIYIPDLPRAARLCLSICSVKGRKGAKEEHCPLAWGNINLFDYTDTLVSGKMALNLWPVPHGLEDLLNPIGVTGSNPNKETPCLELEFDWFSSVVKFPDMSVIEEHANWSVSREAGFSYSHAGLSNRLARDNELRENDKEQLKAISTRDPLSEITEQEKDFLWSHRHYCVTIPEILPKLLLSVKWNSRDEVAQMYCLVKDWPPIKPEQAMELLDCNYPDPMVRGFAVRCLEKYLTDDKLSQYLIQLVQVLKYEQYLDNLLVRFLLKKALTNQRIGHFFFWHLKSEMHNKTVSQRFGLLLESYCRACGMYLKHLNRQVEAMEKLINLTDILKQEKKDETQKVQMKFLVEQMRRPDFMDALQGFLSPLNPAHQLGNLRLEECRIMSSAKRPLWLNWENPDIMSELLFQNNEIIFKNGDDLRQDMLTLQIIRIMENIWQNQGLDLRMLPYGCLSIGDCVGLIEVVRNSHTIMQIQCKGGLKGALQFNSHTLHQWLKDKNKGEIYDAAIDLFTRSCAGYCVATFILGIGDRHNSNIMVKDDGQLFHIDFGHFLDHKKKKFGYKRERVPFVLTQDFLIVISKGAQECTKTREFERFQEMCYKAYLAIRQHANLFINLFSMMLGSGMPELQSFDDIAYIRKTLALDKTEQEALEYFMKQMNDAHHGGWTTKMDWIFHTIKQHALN
# assay-remarks: Biochemical assay of PI3K potency and selectivity using 20 μM ATP, Alpha
# stated-conditions: 20 μM ATP; ratio of IC50 values; > = hypothetical ratio with 100 μM substituted for the missing IC50
reported-metric: Alpha/Delta Ratio

Here is how some compounds turned out for Alpha/Delta Ratio.
>>> value_reported("O=c1c2c(Cl)cccc2nc(CSc2ncnc3[nH]cnc23)n1-c1ccccc1Cl")
">909"
>>> value_reported("O=c1c2ccccc2nc(CSc2ncnc3[nH]cnc23)n1-c1ccccc1")
">211"
>>> value_reported("COc1cc2nc(Cn3cnc4c(N)ncnc43)n(-c3ccccc3Cl)c(=O)c2cc1OC")
">1.5"
>>> value_reported("Nc1ncnc2c1ncn2Cc1nc2cccc(Cl)c2c(=O)n1-c1ccccc1Cl")
">652"
>>> value_reported("O=c1c2cc(O)ccc2nc(CSc2ncnc3[nH]cnc23)n1-c1ccccc1Cl")
38

Request - read-out Alpha/Delta Ratio | tested on PI3Kα (Homo sapiens, UniProt P42336) | compound O=c1c2c(F)cccc2nc(CSc2ncnc3[nH]cnc23)n1-c1ccccc1Cl
>480

Request - read-out Alpha/Delta Ratio | tested on PI3Kα (Homo sapiens, UniProt P42336) | compound O=c1c2ccccc2nc(CSc2ncnc3[nH]cnc23)n1-c1ccc(Cl)cc1
0.09

Request - read-out Alpha/Delta Ratio | tested on PI3Kα (Homo sapiens, UniProt P42336) | compound Cc1ccccc1-n1c(CSc2ncnc3[nH]cnc23)nc2cccc(Cl)c2c1=O
800

Request - read-out Alpha/Delta Ratio | tested on PI3Kα (Homo sapiens, UniProt P42336) | compound O=c1c2c(Cl)cccc2nc(CSc2ncnc3[nH]cnc23)n1-c1ccccc1-c1ccccc1
>2,000

Request - read-out Alpha/Delta Ratio | tested on PI3Kα (Homo sapiens, UniProt P42336) | compound O=c1c2ccccc2nc(CSc2ncnc3[nH]cnc23)n1-c1cccc(Cl)c1
>25
